Source of measurements: ChEMBL document CHEMBL1126148

# Target Under Test: Beta-2 adrenergic receptor (Cavia porcellus)
# Sequence (Q8K4Z4 whole entry): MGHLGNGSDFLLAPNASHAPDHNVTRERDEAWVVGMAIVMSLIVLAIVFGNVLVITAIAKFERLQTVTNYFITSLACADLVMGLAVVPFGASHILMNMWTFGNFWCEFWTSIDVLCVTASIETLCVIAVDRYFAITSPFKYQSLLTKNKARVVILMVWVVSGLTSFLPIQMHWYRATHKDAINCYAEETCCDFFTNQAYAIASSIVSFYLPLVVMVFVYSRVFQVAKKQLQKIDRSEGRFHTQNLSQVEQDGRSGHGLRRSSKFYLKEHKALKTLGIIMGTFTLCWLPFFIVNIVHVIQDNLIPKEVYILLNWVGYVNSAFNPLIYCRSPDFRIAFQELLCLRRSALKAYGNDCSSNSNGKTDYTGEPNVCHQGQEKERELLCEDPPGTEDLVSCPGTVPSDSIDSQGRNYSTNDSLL
# Procedure Summary: Agonist activity at Beta-2 adrenergic receptor in guinea pig trachea after treatment with the compound
Parameter: EC50 (µM)

[[record]]
compound = "COc1cc(CC2NCCc3c2cc(O)c(O)c3I)cc(OC)c1OC (centres undefined)"
meas_value = 2.24

[[record]]
compound = "COc1cc(CC2NCCc3c(F)c(O)c(O)c(F)c32)cc(OC)c1OC (centres undefined)"
meas_value = 0.24

[[record]]
compound = "COc1cc(CC2NCCc3cc(O)c(O)c(I)c32)cc(OC)c1OC (centres undefined)"
meas_value = 1.17

[[record]]
compound = "COc1cc(C[C@@H]2NCCc3cc(O)c(O)cc32)cc(OC)c1OC"
meas_value = 0.0263

